Assay: in vivo
Details: male, Sprague Dawley, rat, sc, 16 µmol/kg, plasma concentration, SC 16 µmol/kg, 0.75 h, individual animals
PROPERTY_LABEL: concentration at 0.75 h (µM)
The reply should contain only the number, in µM.

COMPOUND	concentration at 0.75 h (µM)
C=CCN1CC[C@]23c4c5ccc(O)c4O[C@H]2[C@@H](OCCOCCOCCOCCOCCOCCOCCOC)CC[C@@]3(O)[C@H]1C5 [Naloxegol, reference compound]	2.87

Next up:
INPUT: Indicate its recorded concentration at 0.75 h; the compound in question is C=CCN1CC[C@]23c4c5ccc(O)c4O[C@H]2[C@@H](OCc2cn(CCNCCCCCCOc4cc(OCCCc6c(C)n[nH]c6C)cc(C(=O)O)c4)nn2)CC[C@@]3(O)[C@H]1C5 [AG10-L2-Nal]
OUTPUT: 4.58

###

clearance for assorted compounds
Test: in vivo
Conditions: male, Sprague Dawley, rat, iv, 4.84 umol/kg
The reply should contain only the number, in mL/min/kg.

// solved cases for clearance follow
> print(dat)
                                   compound  recorded.measurement
1  C=CCN1CC[C@]23c4c5ccc(O)c4O[C@H]2[C@@H](OCc2cn(CCNCCCCCCOc4cc(OCCCc6c(C)n[nH]c6C)cc(C(=O)O)c4)nn2)CC[C@@]3(O)[C@H]1C5                  4.83
2  C=CCN1CC[C@]23c4c5ccc(O)c4O[C@H]2[C@@H](OCCOCCOCCOCCOCCOCCOCCOC)CC[C@@]3(O)[C@H]1C5 [Naloxegol, reference compound]                   109

Next up:
INPUT: Indicate its recorded clearance; the compound in question is C=CCN1CC[C@]23c4c5ccc(O)c4O[C@H]2C(=O)CC[C@@]3(O)[C@H]1C5 [Naloxone, reference compound]
OUTPUT: 56.5

###

Assay: in vivo
Settings: male, Sprague Dawley, rat, iv, 4.84 µmol/kg, plasma concentration, IV 4.84 µmol/kg, 12 h, individual animals
PROPERTY_LABEL: concentration at 12 h
Please provide the amount together with its unit, number first.

INPUT: Indicate its recorded concentration at 12 h; the molecule in question is C=CCN1CC[C@]23c4c5ccc(O)c4O[C@H]2[C@@H](OCc2cn(CCNCCCCCCOc4cc(OCCCc6c(C)n[nH]c6C)cc(C(=O)O)c4)nn2)CC[C@@]3(O)[C@H]1C5
OUTPUT: 9.6 nM

###

Molecular target: purified human TTR (Homo sapiens)
Experiment: Fluorescence polarization (FP) binding assay, ligands to TTR in buffer
Conditions: log [nM] inhibitor 2.796
PROPERTY_LABEL: % Fluorescence polarization (mean) (%)
The reply should contain only the number, in %.

INPUT: Indicate its recorded % Fluorescence polarization (mean); the compound in question is COc1ccc2c3c1O[C@H]1[C@@H](OCc4cn(CCNCCCCCCOc5cc(OCCCc6c(C)n[nH]c6C)cc(C(=O)O)c5)nn4)CC[C@@]4(O)[C@@H](C2)N(C)CC[C@]314 [AG10-L2-Oxy]
OUTPUT: 77.990

INPUT: Indicate its recorded % Fluorescence polarization (mean); the compound in question is C=CCN1CC[C@]23c4c5ccc(O)c4O[C@H]2[C@@H](OCc2cn(CCNCCCCCCOc4cc(OCCCc6c(C)n[nH]c6C)cc(C(=O)O)c4)nn2)CC[C@@]3(O)[C@H]1C5 [AG10-L2-Nal]
OUTPUT: 79.479

INPUT: Indicate its recorded % Fluorescence polarization (mean); the compound in question is C=CCN1CC[C@]23c4c5ccc(O)c4O[C@H]2[C@@H](OCc2cn(CCOCCOCCNCCCCCCOc4cc(OCCCc6c(C)n[nH]c6C)cc(C(=O)O)c4)nn2)CC[C@@]3(O)[C@H]1C5 [AG10-L1-Nal]
OUTPUT: 78.760

INPUT: Indicate its recorded % Fluorescence polarization (mean); the compound in question is Cc1n[nH]c(C)c1CCCOc1cc(OCCCCCCN)cc(C(=O)O)c1 [Compound 1]
OUTPUT: 29.820

###

Target: purified human TTR (Homo sapiens, UniProt P02766)
Assay: Fluorescence polarization (FP) binding assay, ligands to TTR in buffer
Settings: log [nM] inhibitor 4.000
PROPERTY_LABEL: % Fluorescence polarization (mean) (%)
The reply should contain only the number, in %.

// solved cases for % Fluorescence polarization (mean) follow
SMILES_INPUT	PROPERTY_LABEL	RECORDED_MEASUREMENT
C=CCN1CC[C@]23c4c5ccc(O)c4O[C@H]2[C@@H](OCc2cn(CCNCCCCCCOc4cc(OCCCc6c(C)n[nH]c6C)cc(C(=O)O)c4)nn2)CC[C@@]3(O)[C@H]1C5	% Fluorescence polarization (mean)	21.649
C=CCN1CC[C@]23c4c5ccc(O)c4O[C@H]2[C@@H](OCc2cn(CCOCCOCCNCCCCCCOc4cc(OCCCc6c(C)n[nH]c6C)cc(C(=O)O)c4)nn2)CC[C@@]3(O)[C@H]1C5	% Fluorescence polarization (mean)	22.560
COc1ccc2c3c1O[C@H]1[C@@H](OCc4cn(CCNCCCCCCOc5cc(OCCCc6c(C)n[nH]c6C)cc(C(=O)O)c5)nn4)CC[C@@]4(O)[C@@H](C2)N(C)CC[C@]314	% Fluorescence polarization (mean)	21.890

Next up:
INPUT: Indicate its recorded % Fluorescence polarization (mean); the compound in question is Cc1n[nH]c(C)c1CCCOc1cc(OCCCCCCN)cc(C(=O)O)c1
OUTPUT: 0.000

###

Test: in vitro
Settings: human, % Cell viability, 100 μM, replicates
PROPERTY_LABEL: viability at 72 h, 100 µM (%)
The reply should contain only the number, in %.

COMPOUND	PROPERTY_LABEL	RECORDED_MEASUREMENT
C=CCN1CC[C@]23c4c5ccc(O)c4O[C@H]2[C@@H](OCc2cn(CCNCCCCCCOc4cc(OCCCc6c(C)n[nH]c6C)cc(C(=O)O)c4)nn2)CC[C@@]3(O)[C@H]1C5 [AG10-L2-Nal]	viability at 72 h, 100 µM	112

Next up:
INPUT: Indicate its recorded viability at 72 h, 100 µM; the compound in question is C=CCN1CC[C@]23c4c5ccc(O)c4O[C@H]2[C@@H](OCCOCCOCCOCCOCCOCCOCCOC)CC[C@@]3(O)[C@H]1C5 [Naloxegol, reference compound]
OUTPUT: 99

###

Assay: in vivo
Conditions: male, Sprague Dawley, rat, sc, 16 µmol/kg, plasma concentration, SC 16 µmol/kg, 4 h, individual animals
PROPERTY_LABEL: concentration at 4 h

INPUT: Indicate its recorded concentration at 4 h; the molecule in question is C=CCN1CC[C@]23c4c5ccc(O)c4O[C@H]2[C@@H](OCc2cn(CCNCCCCCCOc4cc(OCCCc6c(C)n[nH]c6C)cc(C(=O)O)c4)nn2)CC[C@@]3(O)[C@H]1C5
OUTPUT: 1470 nM

###

pKd for assorted compounds
Target: purified human TTR (Homo sapiens)
Assay: Fluorescence polarization (FP) binding assay, ligands to TTR in buffer
Scale note: pKd = -log10(concentration in M).

SMILES_INPUT	pKd
C=CCN1CC[C@]23c4c5ccc(O)c4O[C@H]2[C@@H](OCc2cn(CCNCCCCCCOc4cc(OCCCc6c(C)n[nH]c6C)cc(C(=O)O)c4)nn2)CC[C@@]3(O)[C@H]1C5	6.48

INPUT: Indicate its recorded pKd; the compound in question is C=CCN1CC[C@]23c4c5ccc(O)c4O[C@H]2[C@@H](OCc2cn(CCOCCOCCNCCCCCCOc4cc(OCCCc6c(C)n[nH]c6C)cc(C(=O)O)c4)nn2)CC[C@@]3(O)[C@H]1C5
OUTPUT: 6.31

###

concentration at 2 h for assorted molecules
Assay: in vivo
Conditions: male, Sprague Dawley, rat, sc, 16 µmol/kg, plasma concentration, SC 16 µmol/kg, 2 h, individual animals
The reply should contain only the number, in nM.

INPUT: Indicate its recorded concentration at 2 h; the molecule in question is C=CCN1CC[C@]23c4c5ccc(O)c4O[C@H]2[C@@H](OCc2cn(CCNCCCCCCOc4cc(OCCCc6c(C)n[nH]c6C)cc(C(=O)O)c4)nn2)CC[C@@]3(O)[C@H]1C5
OUTPUT: 2370

INPUT: Indicate its recorded concentration at 2 h; the molecule in question is C=CCN1CC[C@]23c4c5ccc(O)c4O[C@H]2[C@@H](OCCOCCOCCOCCOCCOCCOCCOC)CC[C@@]3(O)[C@H]1C5 [Naloxegol, reference compound]
OUTPUT: 548

###

Assay: in vivo
Details: male, Sprague Dawley, rat, iv, percentage CSF to plasma ratio
Kp for assorted compounds
Answer as a number with no unit attached.

> print(dat)
                                   compound  recorded.measurement
1  C=CCN1CC[C@]23c4c5ccc(O)c4O[C@H]2[C@@H](OCc2cn(CCNCCCCCCOc4cc(OCCCc6c(C)n[nH]c6C)cc(C(=O)O)c4)nn2)CC[C@@]3(O)[C@H]1C5                  0.01

Next up:
INPUT: Indicate its recorded Kp; the compound in question is C=CCN1CC[C@]23c4c5ccc(O)c4O[C@H]2[C@@H](OCCOCCOCCOCCOCCOCCOCCOC)CC[C@@]3(O)[C@H]1C5 [Naloxegol, reference compound]
OUTPUT: 0.15
